test: AUC (0 to 6 hrs) in rat at 10 mg/kg, po; assay type: ADME, organism-based; set-up: time < 6 hr, dose 10 mg/kg, route oral; conditions: plasma
metricName: AUC(0-t) at 6 h (µg·h/mL)

smilesCode | valueMeasured
CC[C@H]1[C@H](/C=C/c2ccc(-c3cccnc3)cn2)[C@@H]2[C@@H](C)OC(=O)[C@]2(O)C[C@@H]1C | 1.9
CC[C@H]1[C@H](/C=C/c2ccc(-c3ccccc3OC)cn2)[C@@H]2[C@@H](C)OC(=O)[C@]2(O)C[C@@H]1C | 0.168

P. CC[C@H]1[C@H](/C=C/c2ccc(-c3cccc(OC)c3)cn2)[C@@H]2[C@@H](C)OC(=O)[C@]2(O)C[C@@H]1C
Q. CC[C@H]1[C@H](/C=C/c2ccc(-c3cccc(F)c3)cn2)[C@@H]2[C@@H](C)OC(=O)[C@]2(O)C[C@@H]1C
R. CC[C@H]1[C@H](/C=C/c2ccc(N3CCCC3)cn2)[C@@H]2[C@@H](C)OC(=O)[C@]2(O)C[C@@H]1C
Qu. Arrange these compounds by their AUC(0-t) at 6 h, starting with the largest number. Please list each label once, in the requested order.
Ans. P, Q, R

A. CC[C@H]1[C@H](/C=C/c2ccc(-c3cccc(F)c3)cn2)[C@@H]2[C@@H](C)OC(=O)[C@@H]2C[C@@H]1C
B. CC[C@H]1[C@H](/C=C/c2ccc(-c3ccoc3)cn2)[C@@H]2[C@@H](C)OC(=O)[C@]2(O)C[C@@H]1C
Qu. Lower value for measured AUC(0-t) at 6 h? Options: A , B Reply with the label of the item you choose.
Ans. B

---

assay: Oral bioavailability in cynomolgus monkey at 1 mg/kg; type: ADME, organism-based, Macaca fascicularis; conditions: in vivo
metricName: bioavailability (%)
The answer is to be given in %; state only the numeric part.

Qu. For the compound shown here, CC[C@H]1[C@H](/C=C/c2ccc(-c3ccccc3)cn2)[C@@H]2[C@@H](C)OC(=O)[C@]2(O)C[C@@H]1C.Cl , give the reported bioavailability.
Ans. 78

---

assay: AUC (0 to 24 hrs) in cynomolgus monkey plasma at 1 mg/kg, po; type: ADME, organism-based, Macaca fascicularis; set-up: time < 24 hr, dose 1 mg/kg, route oral
metricName: AUC(0-t) at 24 h (ng·h/mL)

smilesCode | metricName | valueMeasured
CC[C@H]1[C@H](/C=C/c2ccc(-c3ccccc3)cn2)[C@@H]2[C@@H](C)OC(=O)[C@]2(O)C[C@@H]1C.Cl | AUC(0-t) at 24 h | 3820

A. CC[C@H]1[C@H](/C=C/c2ccc(-c3cccc(C#N)c3)cn2)[C@@H]2[C@@H](C)OC(=O)[C@]2(O)C[C@@H]1C.Cl
B. CC[C@H]1[C@H](/C=C/c2ccc(-c3cccc(OC)c3)cn2)[C@@H]2[C@@H](C)OC(=O)[C@]2(O)C[C@@H]1C.Cl
Qu. # return whichever of A and B has the smaller AUC(0-t) at 24 h Record your answer as the label of the chosen record.
Ans. B

---

test: Cmax in cynomolgus monkey at 1 mg/kg, po; format: ADME, organism-based, Macaca fascicularis; parameters: dose 1 mg/kg, route oral; conditions: in vivo
metricName: Cmax (ng/mL)
Use ng/mL as the unit, but write only the number.

Qu. Please look up its Cmax: CC[C@H]1[C@H](/C=C/c2ccc(-c3ccccc3)cn2)[C@@H]2[C@@H](C)OC(=O)[C@]2(O)C[C@@H]1C.Cl
Ans. 397

---

test: AUC (0 to 6 hrs) in rat at 10 mg/kg, po; type: ADME, organism-based; set-up: time < 6 hr, dose 10 mg/kg, route oral; settings: plasma
metricName: AUC(0-t) at 6 h (ng·h/mL)

smilesCode | readoutUnit | AUC(0-t) at 6 h
CC[C@H]1[C@H](/C=C/c2ccc(-c3cccc(Cl)c3Cl)cn2)[C@@H]2[C@@H](C)OC(=O)[C@@H]2C[C@@H]1C | ng·h/mL | 1150

A. CC[C@H]1[C@H](/C=C/c2ccc(-c3cccc(C#N)c3)cn2)[C@@H]2[C@@H](C)OC(=O)[C@]2(O)C[C@@H]1C
B. CC[C@H]1[C@H](/C=C/c2ccc(-c3ccccc3)cn2)[C@@H]2[C@@H](C)OC(=O)[C@@H]2C[C@@H]1C
C. CC[C@H]1[C@H](/C=C/c2ccc(-c3ccccc3)cn2)[C@@H]2[C@@H](C)OC(=O)[C@]2(O)C[C@@H]1C
D. CC[C@H]1[C@H](/C=C/c2ccc(-c3ccsc3)cn2)[C@@H]2[C@@H](C)OC(=O)[C@]2(O)C[C@@H]1C
Qu. I would appreciate it if you could sort these 4 compounds by AUC(0-t) at 6 h, starting from the smallest number. Return value: ordered labels per request.
Ans. D, B, A, C
(D: 397 ng·h/mL, B: 672 ng·h/mL, A: 1080 ng·h/mL, C: 3300 ng·h/mL)

A. CC[C@H]1[C@H](/C=C/c2ccc(-c3ccccc3F)cn2)[C@@H]2[C@@H](C)OC(=O)[C@@H]2C[C@@H]1C
B. CC[C@H]1[C@H](/C=C/c2ccc(-c3ccccc3C)cn2)[C@@H]2[C@@H](C)OC(=O)[C@]2(O)C[C@@H]1C
Qu. Between A and B , which one has the lower reported AUC(0-t) at 6 h value? // return label of chosen record
Ans. A
(A: 852 ng·h/mL, B: 3160 ng·h/mL)

---

experiment: Tmax in cynomolgus monkey at 1 mg/kg, po and 1 mg/kg, iv; format: ADME, organism-based, Macaca fascicularis; conditions: in vivo
metricName: Tmax (h)
The reply should be a number in h, with the unit left off.

Qu. Any idea what its Tmax is? The molecule is CC[C@H]1[C@H](/C=C/c2ccc(-c3ccccc3)cn2)[C@@H]2[C@@H](C)OC(=O)[C@]2(O)C[C@@H]1C.Cl
Ans. 1

---

assay: Half life in cynomolgus monkey at 1 mg/kg, po and 1 mg/kg, iv; assay type: ADME, organism-based, Macaca fascicularis; details: in vivo
metricName: half-life (h)
Report the figure in h without appending any unit label.

Qu. Dear colleague, I am looking for the recorded half-life of the following compound: CC[C@H]1[C@H](/C=C/c2ccc(-c3ccccc3)cn2)[C@@H]2[C@@H](C)OC(=O)[C@]2(O)C[C@@H]1C.Cl
Ans. 10.7

---

molecular target: Proteinase-activated receptor 1 (Homo sapiens, UniProt P25116); test: Displacement of [3H]haTRAP from human PAR1 after 1 hr by TopCount scintillation counting; details: read-out: IC50
Sequence (P25116 whole entry): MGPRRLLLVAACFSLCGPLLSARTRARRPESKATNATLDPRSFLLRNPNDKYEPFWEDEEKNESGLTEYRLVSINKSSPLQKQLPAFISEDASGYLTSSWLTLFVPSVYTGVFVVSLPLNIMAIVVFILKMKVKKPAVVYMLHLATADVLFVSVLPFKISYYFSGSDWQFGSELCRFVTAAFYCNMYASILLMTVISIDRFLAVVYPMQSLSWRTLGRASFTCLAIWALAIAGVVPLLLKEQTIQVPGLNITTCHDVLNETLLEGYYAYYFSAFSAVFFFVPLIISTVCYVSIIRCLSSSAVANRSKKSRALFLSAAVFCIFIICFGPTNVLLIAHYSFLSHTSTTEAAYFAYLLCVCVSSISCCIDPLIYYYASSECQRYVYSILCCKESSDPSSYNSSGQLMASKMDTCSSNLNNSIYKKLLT
pIC50: −log10 of the molar value.
metricName: pIC50

Example cases with answers are listed next.
smilesCode | targetOrTestSystem | pIC50
CC[C@H]1[C@H](/C=C/c2ccc(-c3cccc(Cl)c3)cn2)[C@@H]2[C@@H](C)OC(=O)[C@@H]2C[C@@H]1C | Proteinase-activated receptor 1 (Homo sapiens, UniProt P25116) | 7.55
CC[C@H]1[C@H](/C=C/c2ccc(-c3ccsc3)cn2)[C@@H]2[C@@H](C)OC(=O)[C@]2(O)C[C@@H]1C | Proteinase-activated receptor 1 (Homo sapiens, UniProt P25116) | 8.34
CC[C@H]1[C@H](CCc2ccc(-c3cccc(C(F)(F)F)c3)cn2)[C@@H]2[C@@H](C)OC(=O)[C@@H]2C[C@@H]1C | Proteinase-activated receptor 1 (Homo sapiens, UniProt P25116) | 6.65

1. CC[C@H]1[C@H](/C=C/c2ccc(-c3ccc(OC)cc3)cn2)[C@@H]2[C@@H](C)OC(=O)[C@]2(O)C[C@@H]1C
2. CC[C@H]1[C@H](/C=C/c2ccc(-c3cccc(OC)c3)cn2)[C@@H]2[C@@H](C)OC(=O)[C@]2(O)C[C@@H]1C
3. CC[C@H]1[C@H](/C=C/c2ccc(-c3ccccc3OC)cn2)[C@@H]2[C@@H](C)OC(=O)[C@]2(O)C[C@@H]1C
4. CC[C@H]1[C@H](/C=C/c2ccc(-c3cccc(C)c3)cn2)[C@@H]2[C@@H](C)OC(=O)[C@]2(O)C[C@@H]1C
Qu. Endpoint returns the given compounds ordered by ascending pIC50. Answer format: the labels, in the requested order.
Ans. 1, 4, 2, 3
(1: 6.35, 4: 7.46, 2: 7.74, 3: 8.09)

A. CC[C@H]1[C@H](/C=C/c2ccc(-c3ccccc3F)cn2)[C@@H]2[C@@H](C)OC(=O)[C@@H]2C[C@@H]1C
B. CC[C@H]1[C@H](/C=C/c2ccc(-c3cccc(Cl)c3Cl)cn2)[C@@H]2[C@@H](C)OC(=O)[C@@H]2C[C@@H]1C
Qu. Quick check, higher pIC50 between A and B ? Lab note: record the label of whichever item you select.
Ans. B
(B: 7.89, A: 7.66)

I. CC[C@H]1[C@H](/C=C/c2ccc(-c3cccc(C#N)c3)cn2)[C@@H]2[C@@H](C)OC(=O)[C@@H]2C[C@@H]1C
II. CC[C@H]1[C@H](/C=C/c2ccc(-c3ccccc3)cn2)[C@@H]2[C@@H](C)OC(=O)[C@@H]2C[C@@H]1C
Qu. Given the listed items, does I or II have the lesser reported pIC50? State your choice using its label.
Ans. I
